# TGT: T1, rat GLP-1 receptor (rat, UniProt P32301 22-463)
# T1 sequence (looked up): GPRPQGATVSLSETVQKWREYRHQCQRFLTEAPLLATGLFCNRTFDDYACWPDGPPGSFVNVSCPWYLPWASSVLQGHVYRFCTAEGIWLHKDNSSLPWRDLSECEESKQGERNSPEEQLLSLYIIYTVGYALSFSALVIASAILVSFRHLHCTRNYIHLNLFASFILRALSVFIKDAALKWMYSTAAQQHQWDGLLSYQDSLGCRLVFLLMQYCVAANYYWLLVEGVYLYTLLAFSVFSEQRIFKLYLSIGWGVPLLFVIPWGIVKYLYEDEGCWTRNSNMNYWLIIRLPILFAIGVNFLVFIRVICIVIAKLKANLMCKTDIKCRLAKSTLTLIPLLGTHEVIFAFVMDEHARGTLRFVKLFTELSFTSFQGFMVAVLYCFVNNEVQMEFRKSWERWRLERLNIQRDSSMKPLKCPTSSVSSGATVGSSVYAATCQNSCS
# ASSAY NOTES: cell-based or functional assay
Param label: returns True when cAMP EC50 < 0.1 nM, returns False otherwise, including exact equality.

>>> assigned_label("IP298 (Fc fusion) YSEGTFTSDVSSYLERQAIDEFIAWLLKGGAAAGGSGSTASSGSGSATGGGGAATHTCPPC")
"True"
>>> assigned_label("IP264 (Fc fusion) YSEGTFTSDYSKLLEEEAVRLFIEWLVKGKGGGGGSGGGGSGGGGSGGGGSATHTCPPCPAPEF")
"True"
>>> assigned_label("IP257 (Fc fusion) SEGTFTSDYSKLLEEEAVRLFIEWLVKGPGGGGGSGGGGSGGGGSGGGGSATHTCPPCPAPEF")
"False"
>>> assigned_label("IP222 (Fc fusion) YSEGTFTSDYSKLLEEEAVRLFIEWLKNGGPSSGAPPPSAAAGGSGSTASSGSGSATGGGGAATHTCPPCPAPEF")
"True"
